tested on: SNB-19 CNS; test: NCI-60 one-dose screen, 48 h (100 = growth as untreated, 0 = no growth, -100 = all killed); conditions: 10 µM
The panel holds about 83,000 compounds, 20% with a hit somewhere; the sample as a whole holds those more often.
measured_attribute: growth (%)
Field: numeric (%). Do not append units.

CCCNC(=O)c1ccc(S(N)(=O)=O)cc1; 107
CC1=CC(=O)c2ccccc2C1=O; 101
CC(C)(O)C#CC#CC(C)(C)O; 112

Input line: Entry under review: "N#C/C(=C\c1cc(O)c(O)c(O)c1)C(N)=O" . Reported growth?
Output line: 101

Input line: What about "CCNc1nc2c(cnn2C)c(=O)[nH]1" ?
Output line: 109

Input line: What about "O=c1[nH][nH]c(=O)c2cc([N+](=O)[O-])ccc12" ?
Output line: 108

Input line: What about "CC(C)OC(=O)c1cc(NC(=S)OC(C)C)ccc1Cl" ?
Output line: 92.3

###

test system: HCT-116 colon; experiment: NCI-60 one-dose screen, 48 h (100 = growth as untreated, 0 = no growth, -100 = all killed); conditions: 10 µM
Compounds without any hit were thinned out: in the full panel of roughly 83,000, 20% have a hit. Active and inactive are the calls of the source. How the source made its calls: active means growth percent below 10; inactive means the rest.
Readings of growth for the listed compounds

Cc1cccc([N+](=O)[O-])c1Cl; 108% (inactive)
Oc1ccc(O)cc1; 107% (inactive)

Input line: Entry under review: "C/C(=N\NC(=O)c1ccccc1N)c1ccccc1O" . Reported growth?
Output line: 7.72% (active)

Input line: What about "O=C(O)C(Cc1ccccc1)C(=O)O" ?
Output line: 96.8% (inactive)

Input line: What about "CCCCNC1(C#N)CCN(Cc2ccccc2)CC1" ?
Output line: 98% (inactive)

Input line: What about Cc1ccccc1C1N=C2Oc3ccccc3C=C2C(=O)N1 (stereo unspecified) ?
Output line: 42.1% (inactive)

Input line: What about C/C=C/CC(C)C(O)C1C(=O)NC(CC)C(=O)N(C)CC(=O)N(C)C(CC(C)C)C(=O)NC(C(C)C)C(=O)N(C)C(CC(C)C)C(=O)NC(C)C(=O)NC(C)C(=O)N(C)C(CC(C)C)C(=O)N(C)C(CC(C)C)C(=O)N(C)C(C(C)C)C(=O)N1C (stereo unspecified) ?
Output line: 8.61% (active)

Input line: What about OCC1OC(OC2C(O)C(CO)OC2(CO)OC2OC(CO)C(O)C(O)C2O)C(O)C(O)C1O (stereo unspecified) ?
Output line: 97.8% (inactive)

###

Readings of growth for the listed molecules
test system: T-47D breast; test: NCI-60 one-dose screen, 48 h (100 = growth as untreated, 0 = no growth, -100 = all killed); settings: 10 µM
About 83,000 compounds went through this panel and 20% of them were active in at least one assay; those are over-represented in the sample as a whole.
Field: numeric (%). Do not append units.

CC(C)COC(=O)COC(=O)OCCOCCOC(=O)OCC(=O)OCC(C)C; 96.7
C=CC(O)CCC (stereo not given); 113
O=S(=O)(O)c1ccc(O)c2ccccc12; 99.4
CC12CC3CC1C(C(=O)O2)C3C(=O)O (stereo not given); 108
O=c1[nH]n(-c2ccccc2)c(=O)cc1Cl; 97.8

Input line: Entry under review: "O=C(/C=C\c1ccc(O)cc1)c1ccccc1" . Reported growth?
Output line: 84.6

Input line: What about O=C(O)CCC(=O)OC(C1CO1)C(OC(=O)CCC(=O)O)C1CO1 (stereo not given) ?
Output line: 94

Input line: What about "CC(=O)Cc1ccc(-c2ccccc2)cc1" ?
Output line: 97.6

Input line: What about "O=C(c1ccc(Cl)cc1)c1ccccc1Cl" ?
Output line: 74.7

Input line: What about C/C=C/CC(C)C(O)C1C(=O)NC(CC)C(=O)N(C)CC(=O)N(C)C(CC(C)C)C(=O)NC(C(C)C)C(=O)N(C)C(CC(C)C)C(=O)NC(C)C(=O)NC(C)C(=O)N(C)C(CC(C)C)C(=O)N(C)C(CC(C)C)C(=O)N(C)C(C(C)C)C(=O)N1C (stereo not given) ?
Output line: 23.2

Input line: What about "Brc1cnc2ccccc2c1" ?
Output line: 108

Input line: What about "CC(C)=C(NC(=O)c1ccccc1)C(=O)O" ?
Output line: 116

Input line: What about "Cc1cc(C)c(N)c(S(=O)(=O)O)c1" ?
Output line: 93.2

Input line: What about "CCCCN(CCCC)CCCO" ?
Output line: 107

Input line: What about "S=C1CCCCCN1" ?
Output line: 100

Input line: What about O=C(OCC(O)C1OC(c2ccccc2)OC(COC(=O)c2ccccc2)C1O)c1ccccc1 (stereo not given) ?
Output line: 109

Input line: What about "CN(C)c1ccc2nc3ccc(=N)cc-3sc2c1" ?
Output line: 19.1

Input line: What about "CCOc1ccc(/C=C/C(=O)c2ccccc2)cc1" ?
Output line: 88.8

Input line: What about O=S(=O)(O)C(Nc1ccccc1)c1ccccc1 (stereo not given) ?
Output line: 93.7

Input line: What about "CC1(C)N=C(N)N=C(N)N1c1cccc(Br)c1" ?
Output line: 80.9

Input line: What about "COc1cc(/C=C/C(=O)c2ccccc2)cc(OC)c1OC" ?
Output line: 91.4

Input line: What about "O=C1C=C(Nc2ccc([N+](=O)[O-])cc2)c2ccccc2C1=O" ?
Output line: 20

Input line: What about COc1ccc(C(C)C=O)cc1 (stereo not given) ?
Output line: 97.9

Input line: What about "CCS(=O)(=O)c1cc(=O)[nH]c(=O)[nH]1" ?
Output line: 114

Input line: What about "O=[N+]([O-])c1ccc(S(=O)(=O)NN=C2CCCCC2)cc1" ?
Output line: 107
